assaySystem: Acetylcholinesterase (Homo sapiens)
Sequence (P22303 whole entry): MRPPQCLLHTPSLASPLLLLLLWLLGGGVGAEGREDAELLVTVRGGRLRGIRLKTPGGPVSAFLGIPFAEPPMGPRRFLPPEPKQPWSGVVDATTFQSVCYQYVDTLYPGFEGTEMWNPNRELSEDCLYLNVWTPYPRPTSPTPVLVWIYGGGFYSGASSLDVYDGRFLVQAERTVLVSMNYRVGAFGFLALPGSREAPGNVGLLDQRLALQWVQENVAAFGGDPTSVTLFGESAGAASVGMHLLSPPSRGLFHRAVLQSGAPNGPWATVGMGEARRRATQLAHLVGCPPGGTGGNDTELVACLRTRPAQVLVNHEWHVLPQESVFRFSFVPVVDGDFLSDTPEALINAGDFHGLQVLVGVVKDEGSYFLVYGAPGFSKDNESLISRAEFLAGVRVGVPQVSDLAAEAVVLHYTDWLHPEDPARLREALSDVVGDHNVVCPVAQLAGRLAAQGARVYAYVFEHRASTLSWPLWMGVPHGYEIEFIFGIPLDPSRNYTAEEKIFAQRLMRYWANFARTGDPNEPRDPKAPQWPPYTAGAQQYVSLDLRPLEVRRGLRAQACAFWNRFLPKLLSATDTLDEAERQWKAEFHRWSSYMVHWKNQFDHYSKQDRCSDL
protocolDescription: Inhibition of human recombinant AchE using acetylthiocholine iodide as substrate at 250 uM by Ellman method
Active and inactive are the calls of the source. No cut-off for these calls is given here.
reportedProperty: inhibition

Use these answered entries as a reference point.
{"chemSmiles": "C=CC[C@H]1NC[C@@H](O)[C@H](O)[C@H]1O", "inhibition": "inactive"}
{"chemSmiles": "CCCCCCO[C@H]1CNC[C@@H](O)[C@@H]1O", "inhibition": "inactive"}
{"chemSmiles": "CCC[C@@H]1NC[C@@H](O)[C@H](O)[C@H]1O", "inhibition": "< 50%"}
{"chemSmiles": "C#CC[C@H]1NC[C@@H](O)[C@H](O)[C@H]1OCc1ccccc1", "inhibition": "inactive"}
{"chemSmiles": "CCCc1cn(CCCCCCN2C[C@H](O)[C@@H](O)[C@H](O)[C@H]2CO)nn1", "inhibition": "inactive"}

Query: Look up inhibition: CCCCCCCCO[C@H]1[C@H](O)[C@@H](O)CN(CCCCCCCC)[C@@H]1CO
Response: inactive

Query: One more compound: O[C@@H]1[C@@H](O)[C@@H](Cc2cn(Cc3ccccc3)nn2)NC[C@H]1O
Response: inactive

Query: One more compound: CCCCCCCCO[C@H]1CN(CCCCCCCC)[C@H](CO)[C@H](O)[C@@H]1O
Response: inactive

Query: One more compound: C=CC[C@H]1NC[C@@H](O)[C@H](OCc2ccccc2)[C@H]1O
Response: < 50%

Query: One more compound: O[C@@H]1[C@@H](OCc2ccccc2)[C@@H](Cc2cn(Cc3ccccc3)nn2)NC[C@H]1O
Response: < 50%

Query: One more compound: O[C@@H]1[C@@H](O)[C@@H](Cc2cn(Cc3cc(OCc4ccccc4)cc(OCc4ccccc4)c3)nn2)NC[C@H]1O
Response: < 50%

Query: One more compound: O[C@@H]1[C@@H](O)[C@@H](Cc2cn(CCC(c3ccccc3)c3ccccc3)nn2)NC[C@H]1O
Response: < 50%

Query: One more compound: CCCCCC[C@H]1N[C@@H](CO)[C@@H](O)[C@H](O)[C@H]1O
Response: inactive

Query: One more compound: CCCCCCCCC[C@H]1NC[C@@H](O)[C@H](O)[C@H]1O
Response: inactive

Query: One more compound: C[Si](C)(C)CCCn1cc(C[C@H]2NC[C@@H](O)[C@H](O)[C@H]2O)nn1
Response: inactive

Query: One more compound: CCCCN1C[C@@H](O)[C@H](O)[C@@H](O)[C@H]1CCC
Response: inactive

Query: One more compound: CCCCCCCCCCn1cc(C[C@H]2NC[C@@H](O)[C@H](O)[C@H]2O)nn1
Response: inactive

Entry source: ChEMBL document CHEMBL3392959
